Target: MPXV VP39 2′-O-RNA methyltransferase (Monkeypox virus)
Sequence (A0A7H0DN74 whole entry, looked up): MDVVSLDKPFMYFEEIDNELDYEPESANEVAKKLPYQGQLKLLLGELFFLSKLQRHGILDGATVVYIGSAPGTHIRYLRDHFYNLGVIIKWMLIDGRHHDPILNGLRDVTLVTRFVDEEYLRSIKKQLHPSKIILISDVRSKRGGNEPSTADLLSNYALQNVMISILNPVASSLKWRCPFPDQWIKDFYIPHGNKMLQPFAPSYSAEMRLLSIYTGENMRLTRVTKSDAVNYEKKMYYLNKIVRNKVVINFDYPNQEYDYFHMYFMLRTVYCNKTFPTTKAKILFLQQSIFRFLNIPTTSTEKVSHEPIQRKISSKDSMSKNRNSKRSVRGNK
Assay: biochemical
READOUT: HillSlope, individual fit of data set 1
A bare number is all that is needed in reply.

# annotated cases, reported HillSlope, individual fit of data set 1 shown
CCc1cn([C@@H]2O[C@H](CSCC[C@H](N)C(=O)O)[C@@H](O)[C@H]2O)c2ncnc(N)c12 | -1.277
Nc1ncnc2c1c(C#Cc1ccccc1)cn2[C@@H]1O[C@H](CSCC[C@H](N)C(=O)O)[C@@H](O)[C@H]1O | -1.507

Q) Lab note: need HillSlope, individual fit of data set 1 with MPXV VP39 2′-O-RNA methyltransferase (Monkeypox virus) for entry Nc1ncnc2c1c(C#Cc1ccc3ccccc3c1)cn2[C@@H]1O[C@H](CSCC[C@H](N)C(=O)O)[C@@H](O)[C@H]1O , please look it up.
A) -1.768

Q) Now consider C=Cc1cn([C@@H]2O[C@H](CSCC[C@H](N)C(=O)O)[C@@H](O)[C@H]2O)c2ncnc(N)c12 .
A) -0.9545

Q) For Nc1ncnc2c1c(I)cn2[C@@H]1O[C@H](CSCC[C@H](N)C(=O)O)[C@@H](O)[C@H]1O then?
A) -1.304

Q) One more compound: Nc1ncnc2c1c(C#Cc1cnc3ccccc3c1)cn2[C@@H]1O[C@H](CSCC[C@H](N)C(=O)O)[C@@H](O)[C@H]1O
A) -1.446

Q) Also check Nc1ncnc2c1ncn2[C@@H]1O[C@H](C[C@@H](N)CC[C@H](N)C(=O)O)[C@@H](O)[C@H]1O [sinefungin, reference compound]
A) -0.961

Q) Would you mind doing Nc1ncnc2c1c(C#Cc1cccc3ccccc13)cn2[C@@H]1O[C@H](CSCC[C@H](N)C(=O)O)[C@@H](O)[C@H]1O as well?
A) -1.676

Q) Follow-up item: Nc1ncnc2c1c(C#Cc1nc3ccccc3[nH]1)cn2[C@@H]1O[C@H](CSCC[C@H](N)C(=O)O)[C@@H](O)[C@H]1O
A) -1.441

---

Biological target: MPXV VP39 2′-O-RNA methyltransferase (Monkeypox virus)
Assay: biochemical
READOUT: LogIC50, individual fit of data set 2

CCc1cn([C@@H]2O[C@H](CSCC[C@H](N)C(=O)O)[C@@H](O)[C@H]2O)c2ncnc(N)c12 [TO1111] | -0.9871
C=Cc1cn([C@@H]2O[C@H](CSCC[C@H](N)C(=O)O)[C@@H](O)[C@H]2O)c2ncnc(N)c12 [TO1116] | -0.8127
Nc1ncnc2c1c(C#Cc1cnc3ccccc3c1)cn2[C@@H]1O[C@H](CSCC[C@H](N)C(=O)O)[C@@H](O)[C@H]1O [TO507] | -0.8836
Nc1ncnc2c1c(C#Cc1ccccc1)cn2[C@@H]1O[C@H](CSCC[C@H](N)C(=O)O)[C@@H](O)[C@H]1O [TO427] | -0.9422
Nc1ncnc2c1c(C#Cc1ccc3ccccc3c1)cn2[C@@H]1O[C@H](CSCC[C@H](N)C(=O)O)[C@@H](O)[C@H]1O [TO504] | -1.08

Q) Request - read-out LogIC50, individual fit of data set 2 | tested on MPXV VP39 2′-O-RNA methyltransferase (Monkeypox virus) | compound Nc1ncnc2c1c(I)cn2[C@@H]1O[C@H](CSCC[C@H](N)C(=O)O)[C@@H](O)[C@H]1O [TO1119]
A) -0.8669

Q) Same for Nc1ncnc2c1c(C#Cc1nc3ccccc3[nH]1)cn2[C@@H]1O[C@H](CSCC[C@H](N)C(=O)O)[C@@H](O)[C@H]1O [TO500]
A) -0.7635

Q) Then this compound: Nc1ncnc2c1c(C#Cc1cccc3ccccc13)cn2[C@@H]1O[C@H](CSCC[C@H](N)C(=O)O)[C@@H](O)[C@H]1O [TO494]
A) ~ -0.7109

Q) Further, for Nc1ncnc2c1ncn2[C@@H]1O[C@H](C[C@@H](N)CC[C@H](N)C(=O)O)[C@@H](O)[C@H]1O [sinefungin, reference compound] ?
A) 0.3552
